Documented melting point across a set of compounds

{"columns": ["compound", "melting point"],
 "data": [
  ["CC(=O)c1cnc(-c2ccccc2)c(-c2ccc(=O)n(C(C)C)n2)c1 [Example 23]", "207 to 208 °C"],
  ["CC(C)n1nc(-c2cc(C(N)=O)c(N)nc2-c2ccccc2)ccc1=O [Example 7]", "> 250 °C"],
  ["COC(=O)c1cc(-c2ccc(=O)n(C(C)C)n2)c(-c2ccccc2)nc1OCC(N)=O [Example 50]", "183 to 184 °C"],
  ["CC(C)n1nc(-c2cc(NC(=O)c3ccccc3)cnc2-c2ccccc2)ccc1=O [Example 27]", "207 to 208 °C"],
  ["CC(C)n1nc(-c2cc(N)cnc2-c2ccccc2)ccc1=O [Example 26]", "147 to 148 °C"],
  ["CC(C)n1nc(-c2cc(C(=O)NCc3ccccn3)cnc2-c2ccccc2)ccc1=O [Example 17]", "193 to 194 °C"],
  ["CC(C)n1nc(-c2cc(C#N)c(C(=O)O)nc2-c2ccccc2)ccc1=O [Example 11]", "196 to 198 °C"],
  ["CC(C)n1nc(-c2ccc(N)nc2-c2ccccc2)ccc1=O [Example 32]", "167 to 171 °C"],
  ["CC(C)n1nc(-c2cc(C(=O)N3CCN(C)CC3)cnc2-c2ccccc2)ccc1=O [Example 19]", "165 to 166 °C"]
]}
